# assayDetails: Cytotoxicity, ATP-Lite, Fa2N-4 immortalized human hepatocytes
# Type: cell-based
# experimentalParameters: ATP-lite assay, Fa2-N4 cells
observedProperty: IC50 at 48 h

Please report the recorded IC50 at 48 h for COc1ccc(Nc2ccnc3cc(Cl)ccc23)cc1 .
> 50 µM

----------
# assayDetails: Hepatic microsome stability, mouse
# Type: in vitro ADME
# experimentalParameters: liver microsomes, pH 7.4, single phase, read-out: Hepatic microsome stability T1/2
observedProperty: half-life at 1 μM (min)
Return type: number; implicit unit min.

Please report the recorded half-life at 1 μM for CCN(CC)Cc1cc(Nc2ccnc3cc(Cl)ccc23)ccc1O [AQ, amodiaquine] .
39.8
